Origin of the recorded values: patent US9670194B2

Biological target: PI3K (p110δ/p85α) (h) (Homo sapiens (Human), UniProt O00329)
Sequence (O00329 whole entry): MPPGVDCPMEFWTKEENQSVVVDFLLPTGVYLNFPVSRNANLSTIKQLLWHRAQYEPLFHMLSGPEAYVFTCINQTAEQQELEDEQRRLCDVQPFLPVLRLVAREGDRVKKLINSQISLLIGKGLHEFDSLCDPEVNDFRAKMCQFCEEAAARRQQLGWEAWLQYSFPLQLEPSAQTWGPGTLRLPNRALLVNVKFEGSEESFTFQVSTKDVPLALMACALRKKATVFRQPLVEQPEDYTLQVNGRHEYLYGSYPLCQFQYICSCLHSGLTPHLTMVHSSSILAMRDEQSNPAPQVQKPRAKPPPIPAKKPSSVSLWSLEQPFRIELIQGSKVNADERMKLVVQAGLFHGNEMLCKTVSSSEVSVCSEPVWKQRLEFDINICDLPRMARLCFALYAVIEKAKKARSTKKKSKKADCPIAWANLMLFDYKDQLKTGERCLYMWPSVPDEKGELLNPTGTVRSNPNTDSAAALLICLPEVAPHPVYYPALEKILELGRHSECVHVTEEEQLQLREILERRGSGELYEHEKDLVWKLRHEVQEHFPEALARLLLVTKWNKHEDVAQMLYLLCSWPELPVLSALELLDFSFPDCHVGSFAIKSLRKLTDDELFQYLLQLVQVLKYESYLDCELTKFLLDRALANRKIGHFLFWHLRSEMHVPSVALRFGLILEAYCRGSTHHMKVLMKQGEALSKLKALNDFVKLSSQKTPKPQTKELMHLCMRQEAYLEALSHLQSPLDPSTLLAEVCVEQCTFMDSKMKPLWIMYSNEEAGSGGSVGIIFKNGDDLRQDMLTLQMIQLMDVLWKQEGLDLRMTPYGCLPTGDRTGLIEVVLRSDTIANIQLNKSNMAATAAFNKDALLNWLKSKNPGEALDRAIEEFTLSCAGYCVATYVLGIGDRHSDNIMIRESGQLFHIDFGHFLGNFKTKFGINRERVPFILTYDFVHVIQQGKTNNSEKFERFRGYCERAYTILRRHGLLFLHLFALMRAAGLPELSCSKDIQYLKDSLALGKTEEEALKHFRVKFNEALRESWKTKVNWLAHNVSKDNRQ
Sequence (P27986 whole entry partner): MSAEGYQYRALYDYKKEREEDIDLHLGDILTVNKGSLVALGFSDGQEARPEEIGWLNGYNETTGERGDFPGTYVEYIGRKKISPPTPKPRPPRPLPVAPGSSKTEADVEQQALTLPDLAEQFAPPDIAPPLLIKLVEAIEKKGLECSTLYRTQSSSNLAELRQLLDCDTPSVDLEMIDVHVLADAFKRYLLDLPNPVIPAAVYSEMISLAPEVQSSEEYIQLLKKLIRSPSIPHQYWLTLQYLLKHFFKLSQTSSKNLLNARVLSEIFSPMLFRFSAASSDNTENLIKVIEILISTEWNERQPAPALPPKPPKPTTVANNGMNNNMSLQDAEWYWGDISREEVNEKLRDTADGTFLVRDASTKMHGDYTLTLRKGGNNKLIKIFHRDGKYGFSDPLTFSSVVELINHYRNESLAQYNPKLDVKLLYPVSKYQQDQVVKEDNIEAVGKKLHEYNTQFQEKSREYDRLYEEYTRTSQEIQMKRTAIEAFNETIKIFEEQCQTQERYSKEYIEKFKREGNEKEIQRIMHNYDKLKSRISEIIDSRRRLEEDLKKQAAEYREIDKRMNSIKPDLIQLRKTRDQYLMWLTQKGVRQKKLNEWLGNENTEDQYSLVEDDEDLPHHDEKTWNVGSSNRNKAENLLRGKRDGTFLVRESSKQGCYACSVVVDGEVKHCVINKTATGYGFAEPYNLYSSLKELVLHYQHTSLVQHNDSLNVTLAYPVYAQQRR
Experiment: PI3K (p110δ/p85α) (h) non-radioactive HTRF kinase assay
endpoint_label: IC50

INSERT INTO results (structure_string, tgt, reported) VALUES
  ('CC[C@H](Nc1ncnc(N)c1-c1nnc(C)o1)c1nc2cccc(C)c2c(=O)n1-c1ccccc1', 'PI3K (p110δ/p85α) (h) (Homo sapiens (Human), UniProt O00329)', '0.012 µM'),
  ('CC[C@H](Nc1ncnc(N)c1-c1nc(C)no1)c1nc2cccc(C)c2c(=O)n1-c1ccccc1', 'PI3K (p110δ/p85α) (h) (Homo sapiens (Human), UniProt O00329)', '0.006 µM'),
  ('Cc1nc(-c2c(N)ncnc2N[C@@H](C)c2nc3cccc(Cl)c3c(=O)n2C2CC2)no1', 'PI3K (p110δ/p85α) (h) (Homo sapiens (Human), UniProt O00329)', '0.067 µM'),
  ('CC[C@@H](Nc1ncnc(N)c1-c1nc(C)no1)c1nc2cccc(Cl)c2c(=O)n1C1CC1', 'PI3K (p110δ/p85α) (h) (Homo sapiens (Human), UniProt O00329)', '> 3 µM');
